TEST SUMMARY: Pharmacokinetic (PK) parameter Vz in rat
Type: ADME, organism-based
STUDY CONDITIONS: in vivo, read-out: Vz

{"CPD SMILES": "CC(C)(C)c1ccc(NC(=O)N2CCN(c3ncccc3Cl)CC2)cc1", "Vd / L/kg": 5.8}

----------
EXPERIMENTAL TARGET: Transient receptor potential cation channel subfamily V member 1 (Rattus norvegicus, UniProt O35433)
Sequence (O35433 whole entry): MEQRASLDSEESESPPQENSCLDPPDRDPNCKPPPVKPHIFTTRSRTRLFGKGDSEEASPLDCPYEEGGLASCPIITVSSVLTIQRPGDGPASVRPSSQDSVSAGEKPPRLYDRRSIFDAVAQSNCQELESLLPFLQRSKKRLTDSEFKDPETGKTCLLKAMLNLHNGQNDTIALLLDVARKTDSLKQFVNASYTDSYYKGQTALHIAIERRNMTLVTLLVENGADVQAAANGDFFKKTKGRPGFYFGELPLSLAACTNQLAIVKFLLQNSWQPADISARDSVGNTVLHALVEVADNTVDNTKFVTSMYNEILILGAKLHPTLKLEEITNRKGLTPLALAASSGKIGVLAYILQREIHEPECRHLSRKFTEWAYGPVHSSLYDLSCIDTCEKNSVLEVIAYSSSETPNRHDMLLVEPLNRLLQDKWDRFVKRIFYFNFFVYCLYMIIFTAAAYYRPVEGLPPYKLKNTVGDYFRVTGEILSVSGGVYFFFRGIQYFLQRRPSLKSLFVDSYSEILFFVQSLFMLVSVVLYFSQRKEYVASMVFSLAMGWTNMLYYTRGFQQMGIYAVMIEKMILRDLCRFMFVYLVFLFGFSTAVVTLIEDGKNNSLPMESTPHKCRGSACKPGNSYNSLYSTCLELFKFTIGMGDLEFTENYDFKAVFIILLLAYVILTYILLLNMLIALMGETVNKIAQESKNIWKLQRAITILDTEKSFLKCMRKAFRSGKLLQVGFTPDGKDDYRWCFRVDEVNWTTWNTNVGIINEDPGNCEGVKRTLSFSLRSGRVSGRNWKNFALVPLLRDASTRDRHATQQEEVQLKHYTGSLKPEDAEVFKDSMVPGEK
TEST SUMMARY: Vanilloid receptor subtype 1 antagonist activity based on its ability to block capsaicin-induced (CAP) activation of the rat VR1 channel in a HEK293 cell line
Type: functional
Rule for this label: label 1 means IC50 is less than 200 nM; label 0 means IC50 is at least 200 nM.

{"COMPOUND": "CC(C)(C)c1ccc(NC(=S)N2CCN(c3ncccc3C(F)(F)F)CC2)cc1", "CLASS LABEL": "label 0"}
{"COMPOUND": "O=C(Nc1ccc2ccccc2c1)N1CCN(c2ncccc2Cl)CC1", "CLASS LABEL": "label 0"}
{"COMPOUND": "O=C(Nc1ccc(OC(F)(F)F)cc1)N1CCN(c2ncccc2Cl)CC1", "CLASS LABEL": "label 1"}
{"COMPOUND": "O=C(Nc1ccc(Oc2ccccc2)cc1)N1CCN(c2ncccc2C(F)(F)F)CC1", "CLASS LABEL": "label 0"}
{"COMPOUND": "O=C(Nc1ccc([N+](=O)[O-])cc1)N1CCN(c2ncccc2Cl)CC1", "CLASS LABEL": "label 0"}
{"COMPOUND": "Cc1ccc(NC(=O)N2CCN(c3ncccc3C(F)(F)F)CC2)cc1", "CLASS LABEL": "label 0"}
{"COMPOUND": "O=C(Nc1ccc(Br)cc1)N1CCN(c2ncccc2Cl)CC1", "CLASS LABEL": "label 0"}
{"COMPOUND": "CC(C)c1ccc(NC(=O)N2CCN(c3ncccc3[N+](=O)[O-])CC2)cc1", "CLASS LABEL": "label 1"}
{"COMPOUND": "CCc1ccc(NC(=O)N2CCN(c3ncccc3Cl)CC2)cc1", "CLASS LABEL": "label 1"}
{"COMPOUND": "CCC(C)c1ccc(NC(=O)N2CCN(c3ncccc3Cl)CC2)cc1 (stereo not given)", "CLASS LABEL": "label 1"}
{"COMPOUND": "CC(C)c1ccc(NC(=O)N2CCN(c3ncccc3C(F)(F)F)CC2)cc1", "CLASS LABEL": "label 1"}
{"COMPOUND": "CC(C)(C)c1ccc(NC(=O)N2CCN(c3ncccc3C(F)(F)F)CC2)cc1", "CLASS LABEL": "label 1"}
{"COMPOUND": "CCc1ccc(NC(=O)N2CCN(c3ncccc3C(F)(F)F)CC2)cc1", "CLASS LABEL": "label 1"}
{"COMPOUND": "CCc1cccnc1N1CCN(C(=O)Nc2ccc(C(C)C)cc2)CC1", "CLASS LABEL": "label 0"}

----------
TEST SUMMARY: Plasma clearance in rat by iv administration at a dose of 3 mg/kg
Assay type: ADME, organism-based
Set-up: dose 3 mg/kg, route intravenous
READOUT TYPE: clearance (mL/min/kg)

{"CPD SMILES": "CC(C)(C)c1ccc(NC(=O)N2CCN(c3ncccc3Cl)CC2)cc1", "READOUT TYPE": "clearance", "RECORDED VALUE": 76.7}
